Measured values drawn from ChEMBL document CHEMBL3785065 for this set.

# ASSAY PROTOCOL: Half life in Sprague-Dawley rat cecum and colon luminal content under anaerobic condition at 10 uM by LC-MS/MS analysis
# Format: ADME, tissue-based, Caecum
OUTCOME MEASURE: half-life at 10 µM

INSERT INTO assay_data (compound_string, val) VALUES
  ('COc1c(NC(=O)C(=O)c2ccc(OCCNC(=O)CN)c3ccccc23)cc(C(C)(C)C)cc1NS(C)(=O)=O', '3 h'),
  ('CC[N+](CC)(CC)CCCS(=O)(=O)Nc1cc(C(C)(C)C)cc(NC(=O)C(=O)c2ccc(OCCN3CCOCC3)c3ccccc23)c1OC.O=C([O-])C(F)(F)F', '> 12 h'),
  ('COc1c(NC(=O)C(=O)c2ccc(OCCN3CCOCC3)c3ccccc23)cc(C(C)(C)C)cc1NS(=O)(=O)CC(=O)O', '> 12 h'),
  ('COc1c(NC(=O)C(=O)c2ccc(OCCN3CCOCC3)c3ccccc23)cc(C(C)(C)C)cc1NS(=O)(=O)CCCN(CCO)CCO', '11 h'),
  ('COc1c(NC(=O)C(=O)c2ccc(OCCNC(=O)CC(=O)O)c3ccccc23)cc(C(C)(C)C)cc1NS(C)(=O)=O', '11 h'),
  ('COc1c(NC(=O)C(=O)c2ccc(OCC[N+](C)(C)C)c3ccccc23)cc(C(C)(C)C)cc1NS(C)(=O)=O.O=C([O-])C(F)(F)F', '> 12 h'),
  ('COc1c(NC(=O)C(=O)c2ccc(OCC[N+]3(C)CCOCC3)c3ccccc23)cc(C(C)(C)C)cc1NS(C)(=O)=O.O=C([O-])C(F)(F)F', '> 12 h'),
  ('COc1c(NC(=O)C(=O)c2ccc(OCCN3CCOCC3)c3ccccc23)cc(C(C)(C)C)cc1NS(=O)(=O)CCCNC(CO)(CO)CO', '11 h'),
  ('COc1c(NC(=O)C(=O)c2ccc(OCCN3CCC(C(=O)O)CC3)c3ccccc23)cc(C(C)(C)C)cc1NS(C)(=O)=O', '> 12 h'),
  ('COc1c(NC(=O)C(=O)c2ccc(OCCN(CCO)CCO)c3ccccc23)cc(C(C)(C)C)cc1NS(C)(=O)=O', '> 12 h'),
  ('COc1c(NC(=O)C(=O)c2ccc(OCCN3CCOCC3)c3ccccc23)cc(C(C)(C)C)cc1NS(=O)(=O)C[N+]12CCN(CC1)CC2.[Cl-]', '> 12 h');
